hAM1R EC50 (cAMP) by entry:
target: hAM1R (human, UniProt Q16602); assay: cell-based or functional assay
Bridge positions count the residues as written; N and C are the ends. Square brackets hold non-standard residues; d marks the D form. Ends that are not written are not given here. Hyp = O=C(O)[C@@H]1C[C@@H](O)CN1

>>> df
                                     binder            measure  reported_result
0  KCNTATCTVQWLAEQIYQFTDKDKDNVAPPYNEGSNG[Hyp]-NH2 (disulfide 2-7 (inferred); ends not checked) [SEQ ID NO: 321]  hAM1R EC50 (cAMP)           > 5 µM
1  GCRTGTCTVQRLAHQIWQFTDKFKDNVAPRSKISPQT[Hyp]-NH2 (disulfide 2-7 (inferred); ends not checked) [SEQ ID NO: 213]  hAM1R EC50 (cAMP)           > 5 µM

# hAM1R EC50 (cAMP) of KCNTATCTVQWLAHQIYQFTDKDKDNVAPTNVGSNG[Hyp]-NH2 (disulfide 2-7 (inferred); ends not checked) [SEQ ID NO: 319] = > 5 µM

Each recorded value in this set is attributed to patent US12139520B2.
